- measurementProtocol: Cytotoxic concentration required to cause microscopically detectable alteration of normal cell morphology of Vero cells
- Assay type: cell-based
- cond: chlorocebus sabaeus, read-out: CC50
Examples of molecules with documented MCC follow.
Give a bare numeral; the unit µg/mL is implied.

- Cc1cccn2c(CSCCO)cnc12: 400

Entry "CCSCc1cnc2cc(C)ccn12" : reported MCC = ? 200

Try Cc1cccc2ncc(CSCC(O)CO)n12 (centres undefined) next. 400

Try "Cc1ccn2c(CSCc3ccccc3)cnc2c1" next. 40

* * *

- measurementProtocol: Minimum cytotoxic concentration to reduce the HEL cell proliferation by 50%
- Assay type: cell-based
- cond: human, HEL cells; read-out: MCC
Friendly reminder: CC50 below 40 µg/mL is criterion met, at or above is criterion not met.

• CCSCc1cnc2c(C)cccn12 = criterion met
• Nc1nc2c(ncn2COCCO)c(=O)[nH]1 [ACYCLOVIR] = criterion not met
• Cc1cccn2c(CSCc3ccccc3)cnc12 = criterion met
• CCSCc1cnc2cc(C)ccn12 = criterion met
• Cc1c(Br)c(C)n2c(CSCCO)cnc2c1Br = criterion not met
• Cc1cccc2ncc(CSCC(C)O)n12 (stereo not drawn) = criterion not met

Lab note: next compound to report on.
Below 40 µg/mL on CC50? Entry O=c1[nH]c(=O)n([C@H]2C[C@H](O)[C@@H](CO)O2)cc1/C=C/Br [BRIVUDINE] criterion not met

* * *

- Test system: Cytomegalovirus
- measurementProtocol: Minimum Inhibitory Concentration (MIC) tested for activity against Cytomegalovirus (CMV) using AD169 strain
- Type: functional
- cond: Human betaherpesvirus 5
parameterMeasured: log10 of MIC (log10 of the value in µg/mL)
Scale type: logarithmic (base 10). Underlying MIC unit: µg/mL.

Below, each entry is followed by its recorded log10 of MIC result.
- OCCSCc1cnc2ccccn12: 1.60
- c1ccc(CSCc2cnc3ncccn23)cc1: 0.30
- Cc1ccn2c(CSCCCO)cnc2c1: 1.48
- Nc1nc2c(ncn2COC(CO)CO)c(=O)[nH]1: -0.30
- CCOC(=O)CSCc1cnc2cc(C)ccn12: 1.40
- Nc1ccn(C[C@@H](CO)OCP(=O)(O)O)c(=O)n1.O.O: -1.30

Entry "Cc1c(Br)cn2c(CSCCO)cnc2c1Br" : reported log10 of MIC = ? 1.30

Try "CCSCc1cnc2c(C)cccn12" next. 0.30

* * *

- Test system: Human alphaherpesvirus 3
- measurementProtocol: Minimum Inhibition Concentration (MIC) for activity against Varicella-Zoster Virus(VZV) using YS(TK+) strain.
- Assay type: functional
parameterMeasured: MIC

- Cc1ccn2c(CSCCCO)cnc2c1: > 40 µg/mL

Entry "OCCCSCc1cnc2c(Cl)cc(C(F)(F)F)cn12" : reported MIC = ? > 40 µg/mL

Try "O=c1[nH]c(=O)n([C@H]2C[C@H](O)[C@@H](CO)O2)cc1/C=C/Br" next. 0.002 µg/mL

Try "Cc1c(Br)cn2c(CSCc3ccccc3)cnc2c1Br" next. 1.8 µg/mL

Try "Cc1c(Br)c(C)n2c(CSCCO)cnc2c1Br" next. > 40 µg/mL

Try "Nc1ccn(C[C@@H](CO)OCP(=O)(O)O)c(=O)n1.O.O" next. 0.033 µg/mL

Try Cc1ccn2c(CSCC(C)O)cnc2c1 (centres undefined) next. > 100 µg/mL

Try "Cc1c(Br)c(C)n2c(CSCc3ccccc3)cnc2c1Br" next. > 40 µg/mL

Try "COC(=O)c1nc2ccccn2c1CSCCO" next. > 25 µg/mL

Values from ChEMBL document CHEMBL1129240
